# experiment notes: Pharmacokinetic study in beagle dogs
# Type: in vivo
# measurement conditions: male, beagle, dog, plasma, po, 5 mg/kg, capsule with MCC, beagle dogs, mean ± SD
quantity kind: Tmax (h)
State the answer as a number, implicitly in h.

Report Tmax for CN1CCN(Cc2ccc(-c3cnc(N4CCOC(Cn5nnc6ncc(-c7cnn(C)c7)nc65)C4)nc3)cc2)CC1 (stereo not shown) please.
1.5

* * *

# experiment notes: log D / log P, octanol/water
# Type: physicochemical
# measurement conditions: run 5, from log D and pKa
quantity kind: logP at 24 h

Report logP at 24 h for CN1CCN(Cc2ccc(-c3cnc(N4CCOC(Cn5nnc6ncc(-c7cnn(C)c7)nc65)C4)nc3)cc2)CC1 (stereo not shown) please.
2.45
